Hi there, I'd appreciate the recorded Emax for every entry that follows.
target: wild-type Androgen Receptor (AR-wt) (Homo sapiens (Human), UniProt P10275); assay: LNCaP-AR-wt AG reporter assay (agonist mode); assay type: cell-based; settings: maximum % stimulation (agonist response) over the tested concentration range; read-out: LNCaP-AR-wt AG MAX % Stim
Sequence (P10275 whole entry): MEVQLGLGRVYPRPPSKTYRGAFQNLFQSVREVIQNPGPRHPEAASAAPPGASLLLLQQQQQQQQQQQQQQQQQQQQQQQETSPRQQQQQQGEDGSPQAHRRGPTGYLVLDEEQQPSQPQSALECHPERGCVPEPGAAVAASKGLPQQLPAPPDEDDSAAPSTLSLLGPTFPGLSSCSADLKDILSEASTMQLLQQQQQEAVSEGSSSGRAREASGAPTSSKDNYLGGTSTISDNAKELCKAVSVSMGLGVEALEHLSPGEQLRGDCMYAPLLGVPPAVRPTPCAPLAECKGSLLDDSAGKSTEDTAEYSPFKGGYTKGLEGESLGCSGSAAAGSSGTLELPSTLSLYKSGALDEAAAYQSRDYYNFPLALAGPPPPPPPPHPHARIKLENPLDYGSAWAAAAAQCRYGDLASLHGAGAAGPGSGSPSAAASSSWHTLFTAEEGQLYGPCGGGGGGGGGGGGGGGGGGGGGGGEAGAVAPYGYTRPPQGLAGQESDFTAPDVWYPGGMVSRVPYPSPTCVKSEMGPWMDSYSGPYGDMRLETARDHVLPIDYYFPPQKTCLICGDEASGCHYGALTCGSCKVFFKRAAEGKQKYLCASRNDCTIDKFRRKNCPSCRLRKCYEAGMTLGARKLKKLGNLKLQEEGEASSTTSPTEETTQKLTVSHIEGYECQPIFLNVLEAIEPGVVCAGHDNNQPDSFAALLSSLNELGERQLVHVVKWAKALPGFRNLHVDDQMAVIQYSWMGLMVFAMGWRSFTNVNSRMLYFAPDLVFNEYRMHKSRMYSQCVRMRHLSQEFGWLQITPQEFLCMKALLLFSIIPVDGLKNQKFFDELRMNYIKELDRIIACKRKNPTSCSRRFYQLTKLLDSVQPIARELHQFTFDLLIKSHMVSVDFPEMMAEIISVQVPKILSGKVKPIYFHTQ

The reported value for CC(C)(C)OC(=O)NC1C(C)(C)C(Oc2ccc(N3C(=S)N(c4cnc(C#N)c(C(F)(F)F)c4)C(=O)C34CCC4)cc2)C1(C)C (stereo not shown) [Cpd 110] in terms of Emax is 0.3%

Emax for CC1(Oc2ccc(N3C(=S)N(c4cnc(C#N)c(C(F)(F)F)c4)C(=O)C34CCC4)cc2)CCNCC1 [Cpd 140] is 0.3%

Value of Emax reported for the molecule CN1CC[C@@H](Oc2ccc(N3C(=S)N(c4cnc(C#N)c(C(F)(F)F)c4)C(=O)C34CCC4)cc2)C[C@H]1C(F)(F)F (racemic) [Cpd 158] is 0.3%

Looking up N#Cc1ncc(N2C(=O)C3(CCC3)N(c3ccc(OC4CCN(CCO)CC4)cc3)C2=S)cc1Cl [Cpd 50] , I see its Emax listed as 0.1%

* * *

molecular target: AR (human) (Homo sapiens (Human), UniProt P10275, T878A); test: Radioligand binding to AR; conditions: [3H]methyltrienolone, LNCaP cells (cytosol), Cheng Prusoff
Sequence (P10275 whole entry T878A): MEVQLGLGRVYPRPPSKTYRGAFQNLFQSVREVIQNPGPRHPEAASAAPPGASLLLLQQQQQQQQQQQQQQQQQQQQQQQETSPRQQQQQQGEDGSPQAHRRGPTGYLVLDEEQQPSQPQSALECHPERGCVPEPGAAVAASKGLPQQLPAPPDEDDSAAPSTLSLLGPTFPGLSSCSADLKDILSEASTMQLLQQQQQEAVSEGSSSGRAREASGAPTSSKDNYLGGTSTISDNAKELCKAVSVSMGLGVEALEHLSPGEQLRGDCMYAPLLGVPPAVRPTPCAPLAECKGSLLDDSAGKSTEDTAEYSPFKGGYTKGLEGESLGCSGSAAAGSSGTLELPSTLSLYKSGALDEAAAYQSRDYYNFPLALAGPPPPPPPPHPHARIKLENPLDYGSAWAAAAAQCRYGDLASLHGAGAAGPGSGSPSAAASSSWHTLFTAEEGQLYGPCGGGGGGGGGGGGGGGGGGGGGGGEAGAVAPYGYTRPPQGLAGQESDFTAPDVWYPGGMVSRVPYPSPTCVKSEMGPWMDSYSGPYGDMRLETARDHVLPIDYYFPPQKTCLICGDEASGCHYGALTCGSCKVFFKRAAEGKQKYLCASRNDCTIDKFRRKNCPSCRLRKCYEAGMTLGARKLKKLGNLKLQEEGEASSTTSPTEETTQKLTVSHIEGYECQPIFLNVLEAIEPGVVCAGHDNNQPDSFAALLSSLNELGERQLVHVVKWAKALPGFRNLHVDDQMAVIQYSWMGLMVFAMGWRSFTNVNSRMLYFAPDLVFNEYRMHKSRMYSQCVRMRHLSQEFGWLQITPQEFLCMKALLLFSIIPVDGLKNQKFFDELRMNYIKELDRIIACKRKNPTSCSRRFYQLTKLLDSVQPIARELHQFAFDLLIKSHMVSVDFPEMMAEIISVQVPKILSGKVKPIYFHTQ
PROPERTY LABEL: Ki (nM)
State just the number; it will be interpreted in nM.

Simply: N#Cc1ncc(N2C(=O)C3(CCC3)N(c3ccc(OC4CCNCC4)nc3)C2=S)cc1C(F)(F)F , AR (human) (Homo sapiens (Human), UniProt P10275, T878A), Ki = 3

* * *

molecular target: wild-type Androgen Receptor (AR-wt) (Homo sapiens (Human), UniProt P10275); assay: LNCaP-AR-wt ANT reporter assay (antagonist mode); format: cell-based; settings: antagonist mode; maximum % inhibition of R1881 control response over tested concentration range; read-out: LNCaP-AR-wt ANT MAX % Inh
So I've got a bunch of compounds here, and I need their Emax values.
Numeric only. Scale: %

Measured Emax for this entry CN1CCC(Cc2ccc(N3C(=S)N(c4cnc(C#N)c(C(F)(F)F)c4)C(=O)C34CCC4)cc2)CC1 [Cpd 237] on wild-type Androgen Receptor (AR-wt) (Homo sapiens (Human), UniProt P10275): 104

Lab entry: wild-type Androgen Receptor (AR-wt) (Homo sapiens (Human), UniProt P10275) assay, compound N#Cc1ncc(N2C(=O)C3(CCC3)N(c3ccc(SC4CCNCC4)cc3)C2=S)cc1C(F)(F)F [Cpd 240] , Emax = 106

# Emax measured on wild-type Androgen Receptor (AR-wt) (Homo sapiens (Human), UniProt P10275) for item CN1CCC(C)(Oc2ccc(N3C(=S)N(c4cnc(C#N)c(C(F)(F)F)c4)C(=O)C34CCC4)cn2)CC1 [Cpd 210] = 102

Record for CN1CCOC(c2ccc(N3C(=S)N(c4cnc(C#N)c(C(F)(F)F)c4)C(=O)C34CCC4)cc2)C1 (stereo not shown) [Cpd 241] under target or system wild-type Androgen Receptor (AR-wt) (Homo sapiens (Human), UniProt P10275): Emax reported as 103

For the compound COc1cc(N2C(=O)C3(CCC3)N(c3ccc4c(cnn4C4CCN(C)CC4)c3)C2=S)cnc1C#N [Cpd 213] , the measured Emax on wild-type Androgen Receptor (AR-wt) (Homo sapiens (Human), UniProt P10275) was 102

The value of Emax recorded for CN1CCC(n2cc3ccc(N4C(=S)N(c5cnc(C#N)c(C(F)(F)F)c5)C(=O)C45CCC5)cc3n2)CC1 [Cpd 199] when tested on wild-type Androgen Receptor (AR-wt) (Homo sapiens (Human), UniProt P10275) reads 88.9

Tested system wild-type Androgen Receptor (AR-wt) (Homo sapiens (Human), UniProt P10275); Emax recorded for N#Cc1ncc(N2C(=O)C3(CCC3)N(c3ccc(CC4CCNCC4)cc3)C2=S)cc1C(F)(F)F [Cpd 234] was 100

* * *

target: wild-type Androgen Receptor (AR-wt) (Homo sapiens (Human), UniProt P10275); experiment: LNCaP-AR-wt AG reporter assay (agonist mode); type: cell-based; conditions: maximum % stimulation (agonist response) over the tested concentration range; read-out: LNCaP-AR-wt AG MAX % Stim
Answer each item with its documented Emax.
A number alone suffices; assume %.

# Emax of N#Cc1ncc(N2C(=O)C3(CCC3)N(c3ccc(O[C@@H]4CCN[C@@H](C(F)(F)F)C4)cc3)C2=S)cc1C(F)(F)F (racemic) = 0.1

The recorded Emax for CN1C2C=C(c3ccc(N4C(=S)N(c5cnc(C#N)c(C(F)(F)F)c5)C(=O)C45CCC5)cc3)CC1CC2 (stereo not shown) is 0.5

According to the records, this molecule N#Cc1ncc(N2C(=O)C3(CCC3)N(c3ccc(OC4CCCO4)cc3)C2=S)cc1C(F)(F)F (stereo not shown) displays Emax of 0.8

N#Cc1ncc(N2C(=O)C3(CCC3)N(c3ccc(C4=C[C@@H](O)[C@H](O)CO4)cc3)C2=S)cc1C(F)(F)F has a reported Emax of 0.3

* * *

molecular target: wild-type Androgen Receptor (AR-wt) (Homo sapiens (Human)); test: LNCaP-AR-wt ANT reporter assay (antagonist mode); type: cell-based; settings: antagonist mode; pIC50 = −Log10(IC50 in Molar); read-out: LNCaP-AR-wt ANT pIC50 (converted)
Exercise: state measured IC50 for each of the molecules provided.
The response must be a number in nM with no trailing unit.

Form: molecule = N#Cc1ncc(N2C(=O)C3(CCC3)N(c3ccc(OCCN4CCC5(CCOC5)CC4)cc3)C2=S)cc1C(F)(F)F ; IC50 = 155

Briefly, IC50 measured for CC(C)CCN1CCC(Oc2ccc(N3C(=S)N(c4cnc(C#N)c(Cl)c4)C(=O)C34CCC4)cn2)CC1 : 81.3

Record COCCn1cc2cc(N3C(=S)N(c4cnc(C#N)c(C(F)(F)F)c4)C(=O)C34CCC4)ccc2n1 , field IC50: 339

Lab book: IC50 of CN1CCC[C@H](CNC(=O)c2ccc(N3C(=S)N(c4cnc(C#N)c(C(F)(F)F)c4)C(=O)C34CCC4)cc2)C1 noted as 813

* * *

Kindly state IC50 for each of the entries shown.
target: F876L mutant Androgen Receptor (AR-F876L) (Homo sapiens (Human), UniProt P10275, F877L); test: LNCaP-AR-F876L ANT reporter assay (antagonist mode); assay type: cell-based; conditions: antagonist mode; pIC50 = −Log10(IC50 in Molar); read-out: LNCaP-AR-F876L ANT pIC50 (converted)
Sequence (P10275 whole entry F877L): as the sequence (P10275 whole entry T878A) above, with F877L, A878T counted along it
Expressed in nM, but write only the number.

Entry N#CCN1CCC(Oc2ccc(N3C(=S)N(c4cnc(C#N)c(Cl)c4)C(=O)C34CCC4)cn2)CC1 — recorded IC50 = 8.51

# IC50 of C=CCN1CCC(Oc2ccc(N3C(=S)N(c4cnc(C#N)c(C)c4)C(=O)C34CCC4)cn2)CC1 = 72.4

Cc1cc(N2C(=O)C3(CCC3)N(c3ccc(OC4CCN(C)CC4)nc3)C2=S)cnc1C#N has a reported IC50 of 123

GET /value?item= N#Cc1ncc(N2C(=O)C3(CCC3)N(c3ccc(OC4CCN(CCO)CC4)nc3)C2=S)cc1Cl &field=IC50 returns 8.13

* * *

For each record, write down the corresponding Emax.
target: wild-type Androgen Receptor (AR-wt) (Homo sapiens (Human)); test: LNCaP-AR-wt ANT reporter assay (antagonist mode); assay type: cell-based; settings: maximum % inhibition of R1881 control response over the tested concentration range; read-out: LNCaP-AR-wt ANT MAX % Inh
The answer consists of two parts: a number and, after it, its unit.

Tested on wild-type Androgen Receptor (AR-wt) (Homo sapiens (Human)), the item Cc1cc(N2C(=O)C3(CCC3)N(c3ccc(OC4CCN(CCF)CC4)nc3)C2=S)cnc1C#N showed Emax equal to 101%

Simply: CCOC(=O)N1CCC(CNC(=O)c2ccc(N3C(=S)N(c4cnc(C#N)c(C(F)(F)F)c4)C(=O)C34CCC4)cc2)CC1 , wild-type Androgen Receptor (AR-wt) (Homo sapiens (Human)), Emax = 101%

Log: wild-type Androgen Receptor (AR-wt) (Homo sapiens (Human)), molecule N#Cc1ncc(N2C(=O)C3(CCC3)N(c3ccc(OCCN4CCC5(CCOC5)CC4)cc3)C2=S)cc1C(F)(F)F , Emax = 98.7%

So the reported Emax for COCc1ccc(-c2ccc(N3C(=S)N(c4cnc(C#N)c(C)c4)C(=O)C34CCC4)cc2)o1 , on wild-type Androgen Receptor (AR-wt) (Homo sapiens (Human)), turned out to be 99.7%

* * *

target: wild-type Androgen Receptor (AR-wt) (Homo sapiens (Human), UniProt P10275); test: LNCaP-AR-wt ANT reporter assay (antagonist mode); format: cell-based; conditions: antagonist mode; pIC50 = −Log10(IC50 in Molar); read-out: LNCaP-AR-wt ANT pIC50 (converted)
Threshold-based label: IC50 under 300 nM gives yes (1), IC50 not under 300 nM gives no (0).

INPUT: Problem: For the molecule C[N@+]1([O-])CC[C@H](Oc2ccc(N3C(=S)N(c4cnc(C#N)c(C(F)(F)F)c4)C(=O)C34CCC4)cc2)CC1 , is IC50 under 300 nM?
OUTPUT: no (0)

INPUT: Record CN1CCC[C@H](Oc2ccc(N3C(=S)N(c4cnc(C#N)c(C(F)(F)F)c4)C(=O)C34CCC4)cc2)C1 : is its IC50 strictly below 300 nM?
OUTPUT: no (0)

INPUT: Field: below-cutoff. Rule: recorded IC50 strictly less than 300 nM. Subject: N#Cc1ncc(N2C(=O)C3(CCC3)N(c3ccc(OC4CCN(CC(F)(F)F)CC4)nc3)C2=S)cc1C(F)(F)F
OUTPUT: yes (1)

INPUT: Given N#Cc1ncc(N2C(=O)C3(CCC3)N(c3ccc(OC4CCSCC4)cc3)C2=S)cc1C(F)(F)F , is recorded IC50 strictly lower than 300 nM?
OUTPUT: no (0)

INPUT: Field: below-cutoff. Rule: recorded IC50 strictly less than 300 nM. Subject: COc1cc(N2C(=O)C3(CCC3)N(c3ccc4nn(C5CCNCC5)cc4c3)C2=S)cnc1C#N
OUTPUT: yes (1)

INPUT: Find out if reported IC50 for COc1cc(N2C(=O)C3(CCC3)N(c3ccc4nn(CCO)cc4c3)C2=S)cnc1C#N is less than 300 nM
OUTPUT: no (0)

INPUT: Hello, I'm reviewing records and need to know if IC50 of COc1cc(N2C(=O)C3(CCC3)N(c3ccc4c(cnn4C4CCN(CCO)CC4)c3)C2=S)cnc1C#N is below 300 nM. Could you check?
OUTPUT: no (0)
